Please go through the items and note down their GI50.
system: SK-MEL-28 melanoma; experiment: NCI tumour cell line growth inhibition, 48 h

Record excerpt, results attached:
1) COc1cc(N2CCN(C(C)C)CC2)ccc1Nc1nc(Nc2cccc(F)c2C(=O)O)c2cc[nH]c2n1 = > 25 µM
2) C[C@]12CC[C@H]3[C@@H](C[C@@H]4SC(Nc5ccccc5)=N[C@@]45CC(O)CC[C@]35C)[C@@H]1CCC2O (stereo not given in full) = 1.68 µM
3) Cn1c2ccccc2c2c3[nH][nH]c(=O)c3c3c4ccccc4[nH]c3c21 = 3.74 µM
4) C/C=C/[C@H]1O[C@@H]2C(=C[C@H]1O)C(=O)O[C@H]2C = 0.786 µM

I'm hoping you can list GI50 for every compound here, please.
1. N=C(N)c1ccc(NCCOCCNc2ccc(C(=N)N)cc2)cc1
2. O=C1Nc2ccccc2/C1=C\c1nc(C2CCN(S(=O)(=O)c3ccc(F)cc3)CC2)n2ccccc12
3. Cc1cc(C(=O)O)c(C)n1-c1cccc(C(=O)O)c1
4. COc1cc(-c2n/c(=C\c3c(O)[nH]c4cc(Cl)ccc34)cc3c2=Nc2ccccc2-3)cc(OC)c1OC
5. Cc1ccc(C2=C(c3ccc(C)cc3)C3(c4ccc(C)cc4)C4C(=O)c5ccccc5C(=O)C4C2(c2ccc(C)cc2)S3=O)cc1 (stereo not given)
6. COC(=O)/C=C1/SC(N2N=C(c3cccs3)CC2c2ccc(F)cc2)=NC1=O (stereo not given)

## Result
1. 73.3 µM
2. > 100 µM
3. > 100 µM
4. 4.05 µM
5. 60.6 µM
6. 2.61 µM

Parameter requested: GI50. Apply to each item below.
1. COc1cc2ncnc(Nc3ccc4c(cnn4Cc4ccccc4)c3)c2cc1OC
2. CCCCc1n(Cc2ccc3ccccc3c2)cc[n+]1Cc1ccc2ccccc2c1
3. C[n+]1c(-c2ccc(/C=N/NC(=O)c3ccc(C(=O)N/N=C/c4ccc(-c5cn6ccccc6[n+]5C)cc4)cc3)cc2)cn2ccccc21

## Result
> 25 µM
1.32 µM
258 µM

Required: GI50, one value per compound below.
1. CN(C)CC(C(=O)Cc1ccccc1)c1ccccc1 (stereo not given)
2. CCC(=O)Nc1ccccc1C#C/C=C\C#Cc1ccccc1C(F)(F)F
3. CN1CCN(c2nc(NCCCNc3ccnc4cc(Cl)ccc34)c3ccccc3n2)CC1
4. NCCOc1ccccc1/C=C1\c2ccccc2-c2ccc([N+](=O)[O-])cc21
5. CC(=O)C1=C(C)N(C)C2(O)C=CC(=O)C3=C(O)c4ccccc4C(=O)C312 (stereo not given)

## Result
1. 3.22 µM
2. 3.65 µM
3. 2.17 µM
4. 1.75 µM
5. 19.4 µM

For each of the compounds below, note its GI50.
1. Cc1[nH]nc2c1N=C(c1ccccc1F)c1cc(C(N)=O)ccc1N2
2. N#Cc1c(N)nc(N)nc1N[C@H](c1nc2c(F)ccc(Cl)c2c(=O)n1-c1cccnc1)C1CC1

## Result
1. 5.79 µM
2. 7.23 µM

====

Hi there, I'd appreciate the recorded TGI for every entry that follows.
tested on: DU-145 prostate; test: NCI tumour cell line growth inhibition, 48 h

1. NC(=O)C(=O)C(c1ccccc1)S(=O)(=O)Cc1ccccc1 (configuration not stated) = > 100 µM
2. N#Cc1nc(-c2ccccn2)oc1N = > 100 µM
3. Cc1cc(N2CCCC2)nc(NCc2cc(Nc3ccnc4cc(Cl)ccc34)ccc2F)n1 = 2.69 µM
4. CN1CCN(Cc2ccc(NC(=O)c3cncc(C#Cc4cncc5nccnc45)c3)cc2C(F)(F)F)CC1 = 9.6 µM

// batch mode: one TGI value per listed entry
1. COc1ccc(/C=C2/NC(=S)N=C2Cl)cc1
2. N#Cc1c(O)c(N=Nc2ccc(Cl)cc2)c(=O)n2c1[nH]c1ccccc12
3. O=C1N[C@@H]2c3c(Br)sc(Br)c3C(=O)[C@@H]2O1
4. COc1cc(S(=O)(=O)Nc2ccc(-c3csc(N4C(=O)C(Cl)C4c4ccccc4)n3)cc2)ccc1Cl (configuration not stated)
5. CCOC(=O)c1nc2ccccc2nc1Oc1cc(OC)c(OC)c(OC)c1
6. Cc1ccc(/C=C2\CCCC(CN(C)C)C2=O)cc1 (configuration not stated)

## Result
1: > 100 µM; 2: > 100 µM; 3: 28.2 µM; 4: 38.7 µM; 5: > 100 µM; 6: 21.9 µM

====

tested on: HCC-2998 colon; assay: NCI tumour cell line growth inhibition, 48 h
Parameter measured: TGI (µM)
Give bare numbers, in µM.

As a guide, the following entries are already answered.
1) CC(C)(C)OC(=O)C1=C2C=C(O)C=CC2(C)N(Cc2ccccc2)C1=N (stereo not given) = 29.3
2) COC1=CC(=O)c2c(c(COP(=O)(N(C)CCBr)N(C)CCBr)cn2C)C1=O = 0.192
3) Cc1cnc2c(c1)C(=O)C1=C(OC(C)(C)CC1O)C2=O (stereo not given) = 32.9
4) COC(=O)c1c[nH]c2c1-c1cc(C(=O)OCc3ccccc3)n(S(=O)(=O)c3ccc(C)cc3)c1C(=O)C2=O = 1.9
5) C/C(=N\N=C(\[Se])N(C)C)c1ccccn1 = 13.9

# input for lookup
## Task Query (molecule): CC(C)C(C/C=C1/CC(CO)(COC(=O)c2ccccc2)OC1=O)C(C)C (stereo not given) ; field requested: TGI
## Result 40.8

====

test system: HT29 colon; experiment: NCI tumour cell line growth inhibition, 48 h; in the data active means GI50 below about 0.43 µM; inactive means the rest
The reply should name one outcome from active, inactive

1. CC(=O)[CH-]C(=O)c1ccccc1.CC(=O)[CH-]C(=O)c1ccccc1.Cl.[O-]c1ccccn1.[O-]c1ccccn1.[Ti+4] = inactive
2. CCC(=O)Nc1ccccc1C#C/C=C\C#Cc1ccccc1C(F)(F)F = inactive
3. CCOC(=O)c1c(C)nc2c(c1N)CC(=O)N2CCc1ccccc1 = active

## Task Returns: the outcome recorded for C/C(=N\NC(=S)N1CC2CCC(CC2)C1)c1cccc(C)n1 in this assay.
## Result active

## Task What call does the record list for O=C1C(=O)c2ccccc2C(O)=C1CCCc1ccc(C2CCCCCC2)cc1 ?
## Result inactive

## Task Give the logged outcome of this assay for the following compound: Cc1[nH]c(-c2nc3ccccc3[nH]2)c(C)c1C(=O)NC(C)C1CCCCC1 (configuration not stated)
## Result inactive

## Task Returns: the outcome recorded for CCN(CC)CCN(Cc1ccc(F)cc1)c1ccc(CO)c(Cl)c1 in this assay.
## Result inactive

====

tested on: SN12C renal; assay: NCI tumour cell line growth inhibition, 48 h
Parameter measured: TGI (µM)
Numbers only, in µM.

Please review the entries below; each comes with its answer.
1) Cc1ccc(/C=C2\CCCC(CN(C)C)C2=O)cc1 (stereo not given) = 3.91
2) CC(C)(C)OC(=O)c1ccc(NCC2=CC(=O)C=CC2=O)cc1 = 23.8
3) N#Cc1c(Cl)nc2ccccc2c1N=[N+]=[N-] = 10.7
4) O=c1c(NO)c([N+](=O)[O-])cnn1-c1ccccc1 = 7.59
5) COc1cc(S(=O)(=O)Nc2ccc(-c3csc(N4C(=O)C(Cl)C4c4ccccc4)n3)cc2)ccc1Cl (stereo not given) = 94

Give one value of TGI per listed compound.
1. O=[n+]1c2ccccc2n([O-])c2cc(Cl)ccc21
2. COC(=O)/C=C1/SC(N2N=C(c3cccs3)CC2c2ccc(F)cc2)=NC1=O (stereo not given)

## Result
[14.1, 11]

====

system: T-47D breast; test: NCI tumour cell line growth inhibition, 48 h
Parameter measured: GI50

Worked cases, answers included:
1. COC1C(OC(=O)/C=C/C=C/C=C/C=C\C(=O)O)CCC2(CO2)C1C1(C)OC1CC=C(C)C (stereo not given) = > 200 µM
2. CCc1cc2ncc(CN3CCN(c4ccc(C(=O)NC)nc4)CC3)cc2[nH]c1=O = 28.2 µM

Provide GI50 for all items below, preserving their order.
1. COC(=O)/C=C1/SC(N2N=C(c3cccs3)CC2c2ccc(F)cc2)=NC1=O (stereo not given)
2. C[C@]12CC[C@H]3[C@@H](C[C@@H]4SC(Nc5ccccc5)=N[C@@]45CC(O)CC[C@]35C)[C@@H]1CCC2O (stereo not given in full)
3. C/C=C/[C@H]1O[C@@H]2C(=C[C@H]1O)C(=O)O[C@H]2C

## Result
1. 3.27 µM
2. 2.41 µM
3. 7.34 µM

====

test system: HOP-92 NSCLC; experiment: NCI tumour cell line growth inhibition, 48 h
Provide the reported TGI of each item.
Numbers only, in µM.

# example entries with known answers
1) Cc1cc(=O)[nH]c(NNC(C#N)c2c(O)ccc3ccccc23)n1 (stereo not given) = 79.6
2) Oc1cccc(/C=N/Nc2nnc(N/N=C/c3cccc(O)c3)c3ccccc23)c1 = 76.1
3) COc1cc(S(=O)(=O)Nc2ccc(-c3csc(N4C(=O)C(Cl)C4c4ccccc4)n3)cc2)ccc1Cl (stereo not given) = 33.7

We next turn to a different molecule, shown below.
## Task Param item = Cc1ccc(C2=C(c3ccccc3)C(c3ccccc3)Oc3ccc(C)cc32)cc1 (stereo not given) ; retrieve measured TGI.
## Result 28.1
